# Assayed system: T1, first Sam domain of Odin (Odin-Sam1) (human, UniProt Q92625 691-770)
# T1 sequence (looked up): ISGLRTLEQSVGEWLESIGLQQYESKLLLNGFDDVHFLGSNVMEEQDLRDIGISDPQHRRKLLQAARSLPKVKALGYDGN
# Test name: ITC
pKd: −log10 of the molar value.
Observable: pKd

Binder	Numeric result
Arap3-Sam wild-type (domain or fragment, human, UniProt Q8WWN8 1-80, looked up) MAAPQDLDIAVWLATVHLEQYADTFRRHGLATAGAARGLGHEELKQLGISATGHRKRILRLLQTGTEEGSLDPKSDSAME	6.43
